System: TK-10
experiment: NCI tumour cell line growth inhibition, 48 h
Active and inactive are the calls of the source. Rule as the data show it: active = GI50 up to about 1.1 µM and inactive = higher.
quantity name: GI50

1. Cc1cc2c(cc1Cl)S(=O)(=O)OC(c1ccc([N+](=O)[O-])cc1)=N2	> 100 µM (inactive)
2. CC(CO)(CO)Nc1ncnc2ccccc12	> 100 µM (inactive)
3. CCc1nnc(S)n1/N=C\c1ccc(-c2ccccc2Cl)o1	43.7 µM (inactive)
4. Cc1nc(O)nc(N/N=C/c2ccc(Cl)c(Cl)c2)c1C(=O)Nc1ccc(Cl)c(Cl)c1	11.5 µM (inactive)
5. N#CC1(O)CCCCCCCCCCC1	> 100 µM (inactive)
6. C=C1C[C@@H]2CC[C@@]34CC5O[C@H]6C(O[C@H]7CC[C@H](CC(=O)O[C@@H]8[C@@H](C)[C@@H]9O[C@@H]%10C[C@]%11(C[C@@H]%12O[C@]%13(C[C@H](C)[C@@H]%14O[C@@H]%15CC(C(O)CO)O[C@@H]%15C[C@@H]%14O%13)C[C@H](C)[C@@H]%12O%11)O[C@@H]%10C[C@@H]9O[C@H]8CC8O[C@@H](CC[C@@H]1O2)C[C@@H](C)C8(O)CO)O[C@@H]7[C@@H]6O3)[C@H]5O4 (some centres undefined)	> 0.45 µM (active)
7. O=C1c2ccccc2C(=O)c2c1ccc1c2N=C(c2ccc(Br)cc2)CC(c2cccc3ccccc23)N1 (centres undefined)	> 100 µM (inactive)
8. Brc1cccc(Nc2nc(-c3cccs3)nc3ccc(Br)cc23)c1	24.7 µM (inactive)
9. Cc1ccc(S(=O)(=O)NC(=O)NCc2ccc(S(N)(=O)=O)cc2)cc1	> 100 µM (inactive)
10. O=Cc1ccc(-c2cccc([N+](=O)[O-])c2)s1	> 100 µM (inactive)
11. COc1nc2ccc(COc3ccc(C(=O)NC(CCC(=O)O)C(=O)O)cc3)cc2nc1OC (centres undefined)	> 10 µM (inactive)
12. COC(=O)C(=O)C(C(=O)C(=O)Nc1cc(C)ccc1C)c1nc2ccccc2nc1O (centres undefined)	> 100 µM (inactive)
13. COc1ccc(-c2oc3ccc(C)cc3c(=O)c2O)cc1	32.1 µM (inactive)
14. COC(=O)c1csc(-c2csc(CCNC(=O)OC(C)(C)C)n2)n1	> 100 µM (inactive)
15. O=C(C(=O)n1ccc2ccccc21)c1c[nH]c2ccccc12	> 10 µM (inactive)
16. Nc1ccc2c(c1)C(=O)N1CCC[C@H]1C(=O)N2	> 100 µM (inactive)
17. COc1cc(/C=C(\NC(=O)c2ccccc2)c2nc3cc([N+](=O)[O-])ccc3[nH]2)cc(OC)c1OC	> 100 µM (inactive)
18. NNC(=O)c1ccc[n+](CCc2ccccc2)c1	> 100 µM (inactive)
19. Cc1cn(CCCCCCOC(=O)NC(CCCNC(=N)N)C(=O)O)c(=O)[nH]c1=O (centres undefined)	> 100 µM (inactive)

====

Test system: MOLT-4
experiment: NCI tumour cell line growth inhibition, 48 h
Active and inactive are the calls of the source. Cut-off read from the data, not from the text of the source: active = GI50 up to about 1.1 µM and inactive = higher.
Classes used: 1 (active), -1 (inactive)

1) C/C(=N/NC(=S)N1CCN(C(=S)N/N=C(/C)c2ccccn2)CC1)c1ccccn1	-1
2) COc1ccc(N2C(=O)[C@@H](N=[N+]=[N-])[C@@H]2[C@H]2COC(C)(C)O2)cc1	-1
3) N#C/C(=C\c1ccccc1O)C(N)=O	-1
4) CN(C)CCNC(=O)c1ccc(NC(=O)c2nc([N+](=O)[O-])cn2C)cc1	-1
5) COC(=O)C1CC2CC(=NNC(N)=O)CC2C1 (stereo not drawn)	-1
6) O=C(O)[C@@H]1CCCN1	-1
7) Cc1cc2c(cc1Cl)SC(NNC(=O)c1ccco1)=NS2(=O)=O	-1
8) COc1cc2cc3c4c(cc(OC)c(OC)c4c2cc1OC)CCN3C	-1
9) CCc1ccccc1N1C(=O)C(=O)C(c2nc3ccccc3s2)C(=O)C1=O	-1
10) CN(C)CCNC(=O)c1cccc2nc3cc(Cl)ccc3nc12	1
11) CNC1(c2cc3ccccc3s2)CCCCC1	-1
12) O=C(O)c1cc2ccc3ccccc3c2oc1=O	-1
13) CC(C)(C)C1CCC2c3c([nH]c4ccccc34)C3C(=O)N(c4cc(Br)cc(Br)c4)C(=O)C3C2C1 (stereo not drawn)	-1
14) CN(CCC#N)c1ccc(/C=C2\SC(=S)NC2=O)cc1	-1
15) O=C(CSc1ncnc2[nH]cnc12)c1ccccc1	-1
16) NNC(=O)CSc1nc2ccc(I)cc2c(=O)n1Cc1ccccc1	-1
17) C[C@]12C/C(=C/O)C(=O)C(O)=C1CC[C@@H]1C2CC[C@@]2(C)C1CC[C@@H]2O (stereo partly drawn)	-1
18) CC(=O)c1sc2[n+](c1C)C(=O)/C(=C\c1ccccc1Cl)S2	-1
19) C#CCOC(=O)C(N)CSSCC(N)C(=O)O (stereo not drawn)	-1
20) Nc1nc(Cl)cc(NCC2(O)CC(CO)C2)n1 (stereo not drawn)	-1
21) CCCc1ccc(NCc2cc(OC)c(OC)c(OC)c2)cc1	-1
22) CC(=O)N(C)C=C1C(=O)N(C)C(=O)N(C)C1=O	-1
23) O=C(NC(OCc1ccccc1)(C(F)(F)F)C(F)(F)F)OCc1ccccc1	-1

====

Recorded GI50 values for a group of compounds are listed next.
Tested on: CCRF-CEM
experiment: NCI tumour cell line growth inhibition, 48 h
Active and inactive are the calls of the source. Rule as the data show it: active = GI50 up to about 1.1 µM and inactive = higher.
quantity name: GI50

1) CCOC(=O)c1nc2cc(C(F)(F)F)ccc2nc1Oc1ccc(OC)cc1	66.2 µM (inactive)
2) CC(C)OP(=O)(OC(C)C)C(C(C)C)N(C)/C(F)=N/C(F)(F)F (stereo not given)	> 100 µM (inactive)
3) COC(=O)C(Cc1c[nH]c2ccccc12)NP(=O)(O)OCC1OC(n2cc(Br)c(=O)[nH]c2=O)CC1O (stereo not given)	> 100 µM (inactive)
4) CC1=NN(c2nc(N)nc(C(C#N)C(=O)c3cc4c(cc3Cl)Sc3nccn3S4(=O)=O)n2)C(C)(C)C1 (stereo not given)	6.84 µM (inactive)
5) COc1ccc(C2OC[C@H]3O[C@@H](OCc4ccccc4)[C@H](O)[C@@H](O)[C@@H]3O2)cc1 (stereo not given in full)	52.7 µM (inactive)

====

Tested on: OVCAR-4
experiment: NCI tumour cell line growth inhibition, 48 h
The source made the active and inactive calls. No stated cut-off is given here; in the data, active = GI50 up to about 1.1 µM and inactive = higher.
quantity name: GI50

1) Cc1c(C(=O)C/C(=N/NC(=O)CC#N)C(N)=O)[n+]([O-])c2ccccc2[n+]1[O-]	32.7 µM (inactive)
2) Cc1[nH]c2ccccc2c1-c1cc(-c2cc(-c3c(C)[nH]c4ccccc34)on2)no1	> 100 µM (inactive)
3) CC1(C)C(CCO)CC1n1ccc(=O)[nH]c1=O (stereo not given)	> 100 µM (inactive)
4) COc1ccc(C2OC[C@H]3O[C@@H](OCc4ccccc4)[C@H](O)[C@@H](O)[C@@H]3O2)cc1 (stereo not given in full)	84.5 µM (inactive)
5) COc1ccc2c(c1O)C(=O)C(CCC(=O)O)CC2 (stereo not given)	> 100 µM (inactive)
6) CN(C)CCNc1ccc(NCCN(C)C)c2c1C(=O)c1ncsc1C2=O	10.2 µM (inactive)
7) Nc1ccc2c3c1cccc3c(=O)n1c3ccc(Cc4ccc5c(c4)nc4c6ccc(N)c7cccc(c(=O)n54)c76)cc3nc21	> 100 µM (inactive)
8) O=C1/C(=C/c2ccccc2)NC(=S)N1CN1CCCCC1	15 µM (inactive)
9) CC1(C)[N+]([O-])=[N+]([O-])C1(C)Br (stereo not given)	> 100 µM (inactive)
10) CN(C)CCNC(=O)c1cccc2nc3cc(Cl)ccc3nc12	2.42 µM (inactive)

====

Test system: RPMI-8226
experiment: NCI tumour cell line growth inhibition, 48 h
Activity calls are given as the source filed them. Rule as the data show it: active = GI50 up to about 1.1 µM and inactive = higher.
Classes used: active, inactive

1. CC1(C)C2CCC13CS(=O)(=O)N1O[C@]13C(=O)O2 (stereo not given in full)	inactive
2. COc1cc(CC2c3cc(OC)c(OC)cc3CCN2C)c(Oc2cc3c(cc2OC)-c2c(OC)c(OC)c(OC)c4c2C(C3)N(C)CC4)cc1OC (stereo not given)	inactive
3. O=c1c2cc(Cl)cc(Cl)c2oc2nc3n(c(=O)c12)CCCS3	inactive
4. COC(=O)CCC(NC(=S)N/N=C(\C)c1cnccn1)C(=O)OC (stereo not given)	inactive
5. CC1=CC(=O)c2c(O)cccc2C1=O [PLUMBAGIN]	active

====

Tested on: DMS-273
experiment: NCI tumour cell line growth inhibition, 48 h
Calls of active or inactive are those of the source. No stated cut-off is given here; in the data, active = GI50 up to about 1.1 µM and inactive = higher.
quantity name: GI50

1) O=C(Nc1ccccc1C(=O)O)C(=O)C(C(=O)c1ccccc1-c1ccccc1)C1OC(=O)c2ccccc21 (stereo unspecified)	26.5 µM (inactive)
2) COc1cc(CC2c3cc(OC)c(OC)cc3CCN2C)c(Oc2cc3c(cc2OC)-c2c(OC)c(OC)c(OC)c4c2C(C3)N(C)CC4)cc1OC (stereo unspecified)	12.5 µM (inactive)
3) N#CC(C(=O)CCCC(=O)Nc1ccc(Cl)cc1Cl)c1ccc(Cl)cc1 (stereo unspecified)	> 100 µM (inactive)
4) CC(=O)N(C)C=C1C(=O)N(C)C(=O)N(C)C1=O	> 100 µM (inactive)
5) CSCCC(NC(=O)C(Cc1ccccc1)NC(=O)CNC(=O)CNC(=O)C(N)Cc1ccc(O)cc1)C(=O)O (stereo unspecified)	> 100 µM (inactive)
6) COC1OC(CO)C(O)C(NC(=O)N(C)N=O)C1O (stereo unspecified)	> 100 µM (inactive)
